test system: HepaRG; test: LDH release cytotoxicity, % of total lysis control; higher = more cytotoxic; conditions: 31.6228 µM; 48 h
Below: a set of entries, each annotated with reported LDH release cytotoxicity.
Numbers only here, please. The scale is %.

Before answering, review these 3 worked examples.
[[record]]
compound = "COCC(C)OCC(C)O (configuration not stated) [Dipropylene glycol monomethyl ether]"
recorded_value = 0.852

[[record]]
compound = "CNC(=O)ON=C(C)SC [Methomyl]"
recorded_value = -1.13

[[record]]
compound = "CC(C)(C)OOC(=O)c1ccccc1 [tert-Butyl perbenzoate]"
recorded_value = -0.865


Now look at this one.
Prompt line: Endpoint output: LDH release cytotoxicity of Nc1nc2nc[nH]c2c(=S)[nH]1 [6-Thioguanine] . Value?
Response line: -1.86

---

system: HepaRG; experiment: LDH release cytotoxicity, % of total lysis control; higher = more cytotoxic; conditions: 1 µM; 48 h
METRIC: LDH release cytotoxicity (%)
Numbers only here, please. The scale is %.

Before answering, review these 10 worked examples.
[[record]]
compound = "C=CC(=O)NCNC(=O)C=C [N,N'-Methylenebisacrylamide]"
metric = "LDH release cytotoxicity"
unit_spec = "%"
recorded_value = -1.4

[[record]]
compound = "c1ccc2c(c1)Cc1ccccc1-2 [Fluorene]"
metric = "LDH release cytotoxicity"
unit_spec = "%"
recorded_value = -0.74

[[record]]
compound = "Oc1ccccc1Cl [2-Chlorophenol]"
metric = "LDH release cytotoxicity"
unit_spec = "%"
recorded_value = -4.14

[[record]]
compound = "CC(=O)C1C(=O)C=C(C)OC1=O (centres undefined) [Sodium dehydroacetate]"
metric = "LDH release cytotoxicity"
unit_spec = "%"
recorded_value = -1.85

[[record]]
compound = "CN1CCCC1=O [N-Methyl-2-pyrrolidone]"
metric = "LDH release cytotoxicity"
unit_spec = "%"
recorded_value = -2.75

[[record]]
compound = "CCCCOCN(C(=O)CCl)c1c(CC)cccc1CC [Butachlor]"
metric = "LDH release cytotoxicity"
unit_spec = "%"
recorded_value = -0.425

[[record]]
compound = "NC(=O)NO [Hydroxyurea]"
metric = "LDH release cytotoxicity"
unit_spec = "%"
recorded_value = -2.62

[[record]]
compound = "CCCCCCCCCCCCc1ccc(S(=O)(=O)O)cc1 [Dodecylbenzenesulfonic acid]"
metric = "LDH release cytotoxicity"
unit_spec = "%"
recorded_value = -3.27

[[record]]
compound = "Nc1ccc(-c2ccc(N)cc2)cc1 [Benzidine]"
metric = "LDH release cytotoxicity"
unit_spec = "%"
recorded_value = -2.37

[[record]]
compound = "CCC(=C(c1ccccc1)c1ccc(OCCN(C)C)cc1)c1ccccc1 [Tamoxifen]"
metric = "LDH release cytotoxicity"
unit_spec = "%"
recorded_value = -2.26


Prompt line: Endpoint output: LDH release cytotoxicity of CCC(c1ccc(O)cc1)C(CC)c1ccc(O)cc1 (stereo not drawn) [meso-Hexestrol] . Value?
Response line: -1.95

Prompt line: Endpoint output: LDH release cytotoxicity of CC(=O)SC1CC2=CC(=O)CCC2(C)C2CCC3(C)C(CCC34CCC(=O)O4)C12 (centres undefined) [Spironolactone] . Value?
Response line: -1.93

Prompt line: Endpoint output: LDH release cytotoxicity of O=[N+]([O-])c1ccc(Cl)cc1 [1-Chloro-4-nitrobenzene] . Value?
Response line: -0.523

Prompt line: Endpoint output: LDH release cytotoxicity of OCCOc1ccccc1 [2-Phenoxyethanol] . Value?
Response line: -1.13

---

system: HepaRG; experiment: LDH release cytotoxicity, % of total lysis control; higher = more cytotoxic; conditions: 31.6228 µM; 48 h
Below: a set of entries, each annotated with reported LDH release cytotoxicity.
Numbers only here, please. The scale is %.

Before answering, review these 3 worked examples.
[[record]]
molecule = "COC(=O)c1ccccc1C(=O)O [Monomethyl phthalate]"
metric = "LDH release cytotoxicity"
recorded_value = -0.563

[[record]]
molecule = "CCN(CC)CCO"
metric = "LDH release cytotoxicity"
recorded_value = 0.244

[[record]]
molecule = "O=C(Nc1ccccc1)c1ccccc1I"
metric = "LDH release cytotoxicity"
recorded_value = 5.86


Now look at this one.
Prompt line: API: value(readout=LDH release cytotoxicity, system=HepaRG) for record CC12CC1(C)C(=O)N(c1cc(Cl)cc(Cl)c1)C2=O (stereo not drawn)
Response line: -2.43

---

system: HepaRG; test: LDH release cytotoxicity, % of total lysis control; higher = more cytotoxic; details: 31.6228 µM; 48 h
Below: a set of entries, each annotated with reported LDH release cytotoxicity.
Respond with a number, then the unit of measure.

[[record]]
molecule = "CCOP(=S)(OCC)SCSC(C)(C)C [Terbufos]"
recorded_value = "-0.0818%"


Prompt line: Endpoint output: LDH release cytotoxicity of Nc1ccc(S(=O)(=O)c2ccc(N)cc2)cc1 [Dapsone] . Value?
Response line: 0.105%

Prompt line: Endpoint output: LDH release cytotoxicity of COc1nn(CSP(=S)(OC)OC)c(=O)s1 [Methidathion] . Value?
Response line: 0.461%

Prompt line: Endpoint output: LDH release cytotoxicity of NCC1(Cc2noc(=O)[nH]2)CCCCC1 . Value?
Response line: -2.07%

Prompt line: Endpoint output: LDH release cytotoxicity of COCCOCCOC [Diethylene glycol dimethyl ether] . Value?
Response line: -0.826%

Prompt line: Endpoint output: LDH release cytotoxicity of CCCCN(CCCC)SN(C)C(=O)Oc1cccc2c1OC(C)(C)C2 [Carbosulfan] . Value?
Response line: -0.247%

---

Below: a set of entries, each annotated with reported LDH release cytotoxicity.
system: HepaRG; experiment: LDH release cytotoxicity, % of total lysis control; higher = more cytotoxic; conditions: 31.6228 µM; 48 h
Numbers only here, please. The scale is %.

Before answering, review these 2 worked examples.
[[record]]
molecule = "ClC1C(Cl)C(Cl)C(Cl)C(Cl)C1Cl (stereo not drawn)"
recorded_value = 0.201

[[record]]
molecule = "O=C(O)c1cc(N=Nc2ccc(S(=O)(=O)Nc3ccccn3)cc2)ccc1O"
recorded_value = 0.113


Now look at this one.
Prompt line: Endpoint output: LDH release cytotoxicity of N#CSCSC#N [Methylene bis(thiocyanate)] . Value?
Response line: 3.74
